For each entry below, report its polymerase ribozyme fitness (log ratio) value.
B1: TPR 5TU (parent)
chain: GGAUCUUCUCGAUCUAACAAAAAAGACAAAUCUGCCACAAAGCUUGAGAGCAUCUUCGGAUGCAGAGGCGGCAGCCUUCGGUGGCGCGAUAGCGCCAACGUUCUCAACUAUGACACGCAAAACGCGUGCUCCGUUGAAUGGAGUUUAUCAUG

- Variants of: B1
- ASSAY SUMMARY: polymerase ribozyme fitness, log enrichment relative to wild type (log ratio); higher = more active; in vitro selection for triplet polymerase activity
This sample holds only a part of the variants without activity.
Numbers only.

Example entries begin here.
C54U G84A U146G = -1.56
A49C G94C = -4.16
U146G = -0.513
U31G U33A C75G A91G G140A G152A = -3.96
G50A G143C = -3.85
U56A C69G U148A = -4.17
U56A G59A A97U C149U = -1.48
U55A G143C = -2.99

For each of the variants below, state polymerase ribozyme fitness (log ratio).
1. A52G C63U C93U U145G C149U
2. G48U C96A
3. G140U U146G
4. A19U C69G C72U G84A
5. G68A G92C

Response line:
1. -4.11
2. -0.685
3. -3.88
4. -3.03
5. -4.16
